# Test system: electrically-stimulated left atrium of the rat
# experimental-details: Positive inotropic action in vitro on electrically-stimulated left atrium
# Type: cell-based
# experimental-context: Rattus norvegicus, EC40pot. in mol/l; 40% increase in contraction force vs initial value; 31°; read-out: -lg(EC40pot.) left atrium (converted)
quantity-measured: EC40 (µM)
Could you give me the number in µM? Just the number is fine.

The examples below pair each entry with its known result.
# molecule, EC40, µM
data = [
    ("Cn1c(=O)c2[nH]cnc2n(C)c1=O [Theophylline, theophylline, reference compound]", 417),
    ("O=c1ccc(-c2ccc(OC(F)F)cc2)n[nH]1", 32.4),
    ("O=c1ccc(-c2ccc(OC(F)(F)C(F)F)cc2)n[nH]1", 61.7),
]

Now let's try a different one.
For the molecule shown here, COc1cc(-c2ccc(=O)[nH]n2)ccc1OC(F)F , give the reported EC40.
0.871
